- testTarget: TLR9 (Homo sapiens)
- Construct: expressed in transfected cells; host or cells: HEK293
- Sequence (Q9NR96 26-1032): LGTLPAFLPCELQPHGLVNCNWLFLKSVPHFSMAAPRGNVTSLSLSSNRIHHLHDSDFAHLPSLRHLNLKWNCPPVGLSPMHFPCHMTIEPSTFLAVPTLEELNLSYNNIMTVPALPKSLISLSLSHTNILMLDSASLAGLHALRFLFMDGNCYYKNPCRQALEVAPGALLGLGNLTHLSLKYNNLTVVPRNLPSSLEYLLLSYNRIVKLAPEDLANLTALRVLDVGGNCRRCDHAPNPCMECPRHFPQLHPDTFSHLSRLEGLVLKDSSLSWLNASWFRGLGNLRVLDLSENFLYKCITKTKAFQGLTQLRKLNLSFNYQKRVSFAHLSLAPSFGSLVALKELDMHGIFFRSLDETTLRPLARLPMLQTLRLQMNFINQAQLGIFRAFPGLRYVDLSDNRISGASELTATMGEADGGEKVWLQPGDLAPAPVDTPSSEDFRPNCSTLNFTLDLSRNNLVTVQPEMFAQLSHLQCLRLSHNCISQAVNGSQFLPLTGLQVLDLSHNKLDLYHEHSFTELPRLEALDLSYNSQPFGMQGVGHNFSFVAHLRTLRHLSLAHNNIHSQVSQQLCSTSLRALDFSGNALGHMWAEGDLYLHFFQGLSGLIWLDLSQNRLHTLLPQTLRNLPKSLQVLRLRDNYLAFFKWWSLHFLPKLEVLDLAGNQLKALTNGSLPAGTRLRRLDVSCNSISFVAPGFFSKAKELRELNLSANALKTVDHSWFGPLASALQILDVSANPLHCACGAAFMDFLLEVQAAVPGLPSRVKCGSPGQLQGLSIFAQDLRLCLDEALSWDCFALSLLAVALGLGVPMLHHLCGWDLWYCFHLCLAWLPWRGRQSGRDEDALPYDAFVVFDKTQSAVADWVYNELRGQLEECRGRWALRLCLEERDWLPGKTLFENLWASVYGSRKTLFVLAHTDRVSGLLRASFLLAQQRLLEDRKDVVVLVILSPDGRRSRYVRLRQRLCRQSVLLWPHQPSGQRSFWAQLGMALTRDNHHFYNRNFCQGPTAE
- measurementDescription: TLR9 screening of (+)-morphinan library, SEAP reporter in HEK293 cells expressing TLR9
- Format: cell-based
- testParameters: HEK293, read-out: % Inhibition (mean), 10 μM; activator ODN2006
- Method: The secreted alkaline phosphatase reporter is under the control of a promoter inducible by the transcription factor NF-κB. […] In a 96-well plate (200 μL total volume) containing 50,000 cells/well, 20 μL of each sample compound was added to wells, in triplicate, followed by a 30 minute incubation at 37° C. and 5% CO2. […] After a 16-20 hr incubation period, the OD at 650 nm was read on a Beckman Coulter AD 340C Absorbance Detector. […]

{"compound": "COc1cc(Br)c2c3c1O[C@@H]1C(=O)CCC4C(C2)NCC[C@]341 (stereo partly drawn) [II-1]", "unitOfMeasure": "%", "inhibition at 10 µM": 86}
{"compound": "O=C1CC[C@]2(O)[C@@H]3Cc4ccc(O)c5c4[C@]2(CCN3CC2CC2)[C@@H]1O5 [II-73]", "unitOfMeasure": "%", "inhibition at 10 µM": 32}
{"compound": "COC1=CC=C2[C@@H]3Cc4c(Br)cc(OCc5ccccc5)c5c4[C@]2(CCN3CC2CC2)[C@@H]1O5 [II-86]", "unitOfMeasure": "%", "inhibition at 10 µM": 91}
{"compound": "COc1cc(Br)c2c(c1O)[C@@]13CCN(CC4CC4)C(C2)C1CCC(=O)C3 (stereo partly drawn) [Compound I-2]", "unitOfMeasure": "%", "inhibition at 10 µM": 90}
{"compound": "COc1ccc2c3c1O[C@@H]1C(=O)CC[C@]4(O)[C@H](C2)N(C(=O)C2CCC2)CC[C@@]314 [II-59]", "unitOfMeasure": "%", "inhibition at 10 µM": 1}
{"compound": "C=CCN1CC[C@@]23CC(=O)CCC2C1Cc1c(-c2ccoc2)cc(OC)c(O)c13 (stereo partly drawn) [Compound I-3]", "unitOfMeasure": "%", "inhibition at 10 µM": 92}
